Listed compounds paired with reported pEC50
Measurement Target: Glycogen synthase kinase-3 beta (Homo sapiens)
Sequence (P49841 whole entry): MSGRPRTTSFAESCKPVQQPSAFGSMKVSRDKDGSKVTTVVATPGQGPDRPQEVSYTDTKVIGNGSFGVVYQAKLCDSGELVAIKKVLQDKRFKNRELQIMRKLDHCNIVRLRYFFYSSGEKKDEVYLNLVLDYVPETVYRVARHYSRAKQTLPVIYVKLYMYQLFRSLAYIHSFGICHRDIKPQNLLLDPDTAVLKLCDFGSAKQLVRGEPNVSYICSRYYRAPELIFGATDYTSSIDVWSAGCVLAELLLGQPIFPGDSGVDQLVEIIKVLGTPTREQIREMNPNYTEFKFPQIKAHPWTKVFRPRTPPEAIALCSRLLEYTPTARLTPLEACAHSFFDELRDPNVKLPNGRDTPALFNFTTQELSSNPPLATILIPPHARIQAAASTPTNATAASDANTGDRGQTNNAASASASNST
Procedure Text: concentration-response blocking of human GSK3B – biochemical, luminescence, cell-free homogeneous, retest, dose response (AID 434954)
pEC50: −log10 of the molar value.

Compound	Measurement Target	pEC50
CN(C)/C=C/C(=O)c1cnc(-c2cccc(Cl)c2)s1 [MLS000706958]	Glycogen synthase kinase-3 beta (Homo sapiens)	< 3.52
Cc1ccc2sc(N(CCN(C)C)C(=O)c3ccc(S(=O)(=O)N4CC(C)OC(C)C4)cc3)nc2c1C (centres undefined)	Glycogen synthase kinase-3 beta (Homo sapiens)	< 3.52
O=NCc1cn(-c2ccccc2)nc1-c1ccccc1	Glycogen synthase kinase-3 beta (Homo sapiens)	4.59
O=c1cc(-c2ccc(O)cc2)oc2cc(O)cc(O)c12 [Naringenin, 18]	Glycogen synthase kinase-3 beta (Homo sapiens)	4.31
COC(=O)C1=C(C)N(CCc2cc(OC)c(OC)c(OC)c2)C(=O)N[C@H]1c1ccccc1	Glycogen synthase kinase-3 beta (Homo sapiens)	< 3.52
CCOC(=O)c1sc2c(c1C)C(c1cccs1)C1C(=O)CCCC1=N2 (centres undefined) [MLS000082170]	Glycogen synthase kinase-3 beta (Homo sapiens)	< 3.52
CCN(CCNC(=O)CN(C)S(=O)(=O)c1cccc2nsnc12)c1ccccc1	Glycogen synthase kinase-3 beta (Homo sapiens)	< 3.52
CCN(CC)Cc1c(C(=O)NN=Cc2ccc(C)o2)nnn1-c1nonc1N	Glycogen synthase kinase-3 beta (Homo sapiens)	4.64
Cc1ccccc1-c1nnc(SCc2ccccc2F)o1	Glycogen synthase kinase-3 beta (Homo sapiens)	< 3.52
